Entries annotated with measured binding score
- Measurement Target: PfCSP full length (Plasmodium falciparum (isolate NF54), UniProt P19597)
- Sequence (P19597 20-375): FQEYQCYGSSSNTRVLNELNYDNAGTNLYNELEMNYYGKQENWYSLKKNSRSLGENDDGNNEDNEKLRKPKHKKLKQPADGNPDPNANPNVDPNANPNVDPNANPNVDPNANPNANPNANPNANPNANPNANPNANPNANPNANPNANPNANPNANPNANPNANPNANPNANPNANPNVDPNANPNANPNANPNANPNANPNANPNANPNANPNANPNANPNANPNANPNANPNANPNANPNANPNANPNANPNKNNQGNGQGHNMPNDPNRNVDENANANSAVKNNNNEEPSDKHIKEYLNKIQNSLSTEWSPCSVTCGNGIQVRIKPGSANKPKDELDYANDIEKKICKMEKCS
- Assay Info: ELISA AUC

{"Binder": "CL-442127 (antibody, V domains shown, peptides N-terminally acetylated and C-terminally amidated) VH: QAQLVESGGGVVQPGKSLRLSCAASRFTFRNYGMHWVRQGPVKGLEWVALIWHDGSNKFYSDSVRDRFTISRDNSKNKLFLQMNSLTADDTALYYCVRSNYDGSGTYGWFGPWGQGTLVTVSS VL: EIVLTQSPGTLSLSPGERATLSCRASQSVISNYLAWYQQKPGQAPRLLIYGASTRDIGIPDRFSGSGSGTDFTLTISRLEPEDFAVYFCHQYGSSFTFGPGTKVDFK", "binding score": 2.3}
{"Binder": "CL-509940 (antibody, V domains shown, peptides N-terminally acetylated and C-terminally amidated) VH: QVQLVESGGGVVQPGRSLRLSCAASGFTFSTYGMHWVRQAPGKGLEWVAVIWYDGSIKFYADSVKGRFTISRDDSKNTLYLQMNSLRAEDTAVYYCARDGGYSDSGRFGWFDPWGQGNLVTVSS VL: EIVMTQSPVTLSVSPGERVTLSCRASQSVSSNLAWYQQKPGQAPRLLIYGASNRATGIPDRFSGSGSGTEFSLTVTSLQSEDFAVYYCQQYNQWRTFGQGTKVEIR", "binding score": 2.09}
{"Binder": "CL-512011 (antibody, V domains shown, peptides N-terminally acetylated and C-terminally amidated) VH: QVQLVESGGGVVQPGRSLRLSCVTSGFTFSSFGMHWVRQAPGKGLEWVALIWYDGSHKFYADSLTGRFTISRDNSKNTLYLQMNSLRVEDTAVYYCARAHAVTTANDKYGTDVWGQGTTVNVSP VL: DIQMTQSPSTLSASVGDRVTITCRASQSISSWLAWYQHKPGNAPKLLIYKASNLESGVPSRFSGSGSGTEFTLTISSLQPDDFATYFCQQYNSYWTFGQGTKVEVK", "binding score": 2.5}
{"Binder": "CL-512275 (antibody, V domains shown, peptides N-terminally acetylated and C-terminally amidated) VH: QVQLVESGGGVVQPGGSFRLSCETSGFTFSNFGMHWVRQAPGKGLEWVALIWYDGSHKFYADSLTGRFTISRDNSKNTLYLQMNSLRVEDTAVYYCARAHSVTTANDKYGTDVWGQGTTVTVSP VL: DIQMTQSPSTLSASVGDRVTITCRASQSISSWLAWYQHKPGRAPKLLIYKASSLESGIPSRFSGSGSGTEFTLTISSLQPDDFATYFCQQYNSYWTFGQGTKVEIK", "binding score": 2.54}
{"Binder": "CL-438096 (antibody, V domains shown, peptides N-terminally acetylated and C-terminally amidated) VH: QVVLVESGGGVVQPGRSLRLSCEASGFIFSSRGMHWVRQTPGKGLEWVAIIWYDGSNKFYADSVKGRFTISRDNSKNTLYLQMNSLRAEDTAVYYCARSYRTSLDKKYGMDVWGQGTTVTVSS VL: DIQMTQSPSTLSASVGDRVTITCRASQSISSWLAWYQQKPGKAPKLLIYKASSLESGVPSRFSGSGSGTEFTLTISSLHPDDFATYFCQQYNSYWTFGQGTKVEIK", "binding score": 2.6}
